# pEC50 per entry
# SUBJECT_OF_TEST: mutant integrin CD11bE320A/CD18 (Homo sapiens, UniProt P11215, E336A)
# Construct: expressed in transfected cells; host or cells: K562 (ATCC)
# MEASUREMENT_NOTES: HTS cell adhesion assay, K562 E320A cells on immobilized fibrinogen
# Assay type: cell-based
# PARTICULARS: Table 3, adhesion to fibrinogen, five point dose-response
pEC50: −log10 of the molar value.
OBSERVATION_TYPE: pEC50

COMPOUND	ENDPOINT_RESULT
CN(CCC#N)C(=O)COC(=O)c1c2c(nc3ccccc13)/C(=C/c1ccco1)CC2	5.11
CC1CCN(Cc2ccc(NC(=O)C3CCN(c4nnc(-n5cccc5)s4)CC3)cc2)CC1	4.85
Cc1nc(C)c(C(=O)Nc2nc3c(C)cccc3s2)o1	5.31
Cc1ccc(-n2nnnc2SCC(=O)Nc2ccc3c(c2)COC3=O)cc1C	5.38
O=C(CCN1C(=O)c2ccccc2C1=O)Nc1ccc(-c2nc3ccccc3o2)cc1	5.80
O=C(Cn1c(=O)oc2cc(S(=O)(=O)N3CCCC3)ccc21)NC1CCCc2ccccc21 (stereo not shown)	5.90
COc1cccc2cc(/C(C)=N/Nc3nc(-c4cc(C)ccc4C)cs3)c(=O)oc12	4.76
COc1ccc(-c2nnn(CC(=O)Nc3sc4c(c3C#N)CCCC4)n2)cc1	5.31
COCCCNC(=O)c1c(N)n(/N=C/c2cccs2)c2nc3ccccc3nc12	5.30
O=C(NCCN1C(=O)S/C(=C\c2ccccc2)C1=O)c1cc(S(=O)(=O)N2CCOCC2)c(Cl)cc1Cl	5.05
Cc1c(N2C(=O)c3ccc4c5c(ccc(c35)C2=O)CC4)c(=O)n(-c2ccccc2)n1C	5.40
COc1ccc(/C=c2\sc3nc(-c4ccccc4OC)nn3c2=O)c(OC)c1	5.15
CC(C)CCn1c(SCC(=O)N2CC(=O)Nc3ccccc32)nc2scc(-c3cccs3)c2c1=O	5.12
CCCCn1c(SCC(=O)c2ccc(OC)cc2OC)nc2cc(S(N)(=O)=O)ccc21	5.28
CCOc1cc(/C=C2/N=C(c3ccc(C(C)(C)C)cc3)OC2=O)cc(Cl)c1OS(C)(=O)=O	5.07
O=C1NC(=S)N(C2CC2)C(=O)/C1=C/c1ccc2c(c1)CCN2CCCCl	3.79

----------
# SUBJECT_OF_TEST: wild-type integrin CD11b/CD18 (Homo sapiens, UniProt P11215)
# Construct: expressed in transfected cells; host or cells: K562 (ATCC)
# MEASUREMENT_NOTES: HTS cell adhesion assay, K562 CD11b/CD18 cells on immobilized fibrinogen
# Format: cell-based
# PARTICULARS: Table 4, adhesion to fibrinogen, dose-response
OBSERVATION_TYPE: EC50 CD11b/CD18

COMPOUND	ENDPOINT_RESULT
C=CCn1c(SCC(=O)c2[nH]c(C)c(C(=O)OC)c2C)nc2scc(-c3ccc(OC)c(OC)c3)c2c1=O	N/A Very Low
O=C(CN1C(=O)c2ccccc2C1=O)Nc1ccc(-c2nc3ccccc3o2)cc1	N/A Very Low
O=C(O)CCN1C(=O)/C(=C/c2ccc(-c3nc4ccccc4s3)o2)SC1=S	N/A Very Low
O=C(Cn1c(=O)oc2cc(S(=O)(=O)N3CCCC3)ccc21)NC1CCCc2ccccc21 (centres unmarked)	N/A Very Low
O=C(O)CCN1C(=O)/C(=C\c2ccc(-c3nc4ccccc4s3)o2)SC1=S	N/A Very Low
